- ASSAYED_TARGET: HLA-A02.01 (Homo sapiens, UniProt P04439, D140Y/D185E/D98H/E176V/E277Q/G131W/G231S/I119V/I121R/I166T/I218V/L300P/L318F/N151K/N90K/P208A/P217A/Q86G/Q94H/R138H/R169H/T345S)
- TEST_PROTOCOL: Class I MHC peptide binding affinity (displacement of radiolabeled reference peptide)
- DETAILS: Observed Affinity (IC50; (nM)), allele A02.01
Where a SMILES comes first, the peptide text is derived from it.
VALUE_TYPE: IC50 (nM)

>  <COMPOUND>
CC[C@H](C)[C@H](NC(=O)[C@H](CC(C)C)NC(=O)[C@H](CCC(N)=O)NC(=O)[C@@H](NC(=O)[C@@H](NC(=O)[C@@H](N)CO)[C@@H](C)O)C(C)C)C(=O)N[C@@H](CCSC)C(=O)N[C@@H](CCC(N)=O)C(=O)N[C@@H](CC(C)C)C(=O)O (H-STVQLIMQL-OH; N-terminus and C-terminus assumed)

>  <VALUE_TYPE>
IC50

>  <VAL>
8540

$$$$
>  <COMPOUND>
CC[C@H](C)[C@H](NC(=O)[C@H](Cc1ccc(O)cc1)NC(=O)[C@H](CCCCN)NC(=O)CNC(=O)[C@H](CCCNC(=N)N)NC(=O)[C@H](CCCCN)NC(=O)[C@H](Cc1c[nH]cn1)NC(=O)[C@H](CC(C)C)NC(=O)[C@@H](N)Cc1c[nH]c2ccccc12)C(=O)O (H-WLHKRGKYI-OH; N-terminus and C-terminus assumed)

>  <VALUE_TYPE>
IC50

>  <VAL>
1250

$$$$
>  <COMPOUND>
CC[C@H](C)[C@H](NC(=O)[C@H](CCCCN)NC(=O)[C@H](Cc1ccc(O)cc1)NC(=O)[C@@H](NC(=O)[C@@H](NC(=O)[C@H](CC(=O)O)NC(=O)[C@H](CO)NC(=O)[C@H](CCSC)NC(=O)[C@@H](NC(=O)[C@@H](N)Cc1ccccc1)C(C)C)[C@@H](C)O)[C@@H](C)O)C(=O)O (H-FVMSDTTYKI-OH; N-terminus and C-terminus assumed)

>  <VALUE_TYPE>
IC50

>  <VAL>
62.4

$$$$

###

- ASSAYED_TARGET: HLA-A01.01 (Homo sapiens, UniProt P04439, A114D/A174V/A182V/D101N/D185E/E176A/E190D/L180R/Q94H/R68K/S129P/T187R/V100A/V91M/W191G)
- TEST_PROTOCOL: Class I MHC peptide binding affinity (displacement of radiolabeled reference peptide)
- DETAILS: allele A01.01; read-out: Observed Affinity (IC50; (nM))
Where a SMILES comes first, the peptide text is derived from it.
Readings of IC50 for the listed compounds

>  <COMPOUND>
C[C@H](NC(=O)[C@H](CC(N)=O)NC(=O)[C@@H](NC(=O)[C@@H](N)[C@@H](C)O)[C@@H](C)O)C(=O)N[C@@H](Cc1ccccc1)C(=O)N[C@@H](CO)C(=O)NCC(=O)N[C@@H](CCC(=O)O)C(=O)N[C@@H](Cc1ccc(O)cc1)C(=O)O (H-TTNAFSGEY-OH; N-terminus and C-terminus assumed)

>  <IC50 / nM>
4.4

$$$$
>  <COMPOUND>
CC[C@H](C)[C@H](NC(=O)[C@H](CC(=O)O)NC(=O)[C@H](Cc1ccccc1)NC(=O)[C@H](CC(C)C)NC(=O)[C@@H](NC(=O)[C@H](CCC(=O)O)NC(=O)[C@@H](NC(=O)[C@H](CCSC)NC(=O)[C@@H](N)Cc1c[nH]c2ccccc12)[C@@H](C)O)[C@@H](C)O)C(=O)N[C@H](C(=O)O)C(C)C (H-WMTETLFDIV-OH; N-terminus and C-terminus assumed)

>  <IC50 / nM>
14400

$$$$
>  <COMPOUND>
CC(C)[C@H](NC(=O)[C@H](CCC(=O)O)NC(=O)[C@H](CC(N)=O)NC(=O)[C@H](CO)NC(=O)CN)C(=O)N[C@H](C(=O)N[C@H](C(=O)N[C@@H](CCCNC(=N)N)C(=O)N[C@@H](Cc1ccc(O)cc1)C(=O)O)[C@@H](C)O)[C@@H](C)O (H-GSNEVTTRY-OH; N-terminus and C-terminus assumed)

>  <IC50 / nM>
606

$$$$

###

- ASSAYED_TARGET: HLA-A03.01 (Homo sapiens)
- TEST_PROTOCOL: Class I MHC peptide binding affinity (displacement of radiolabeled reference peptide)
- DETAILS: allele A03.01; read-out: Observed Affinity (IC50; (nM))
Where a SMILES comes first, the peptide text is derived from it.
VALUE_TYPE: IC50 (nM)

>  <MOLECULE>
CC(C)C[C@H](NC(=O)[C@@H](NC(=O)[C@@H](N)[C@@H](C)O)[C@@H](C)O)C(=O)N[C@@H](CC(N)=O)C(=O)N[C@@H](CO)C(=O)N1CCC[C@H]1C(=O)N1CCC[C@H]1C(=O)N[C@@H](CC(C)C)C(=O)N[C@@H](CCCCN)C(=O)O (H-TTLNSPPLK-OH; N-terminus and C-terminus assumed)

>  <ASSAYED_TARGET>
HLA-A03.01 (Homo sapiens)

>  <VALUE_TYPE>
IC50

>  <UNIT_INFO>
nM

>  <VAL>
9.8

$$$$
>  <MOLECULE>
CC(C)C[C@H](NC(=O)[C@H](Cc1ccccc1)NC(=O)[C@H](CO)NC(=O)[C@H](CC(C)C)NC(=O)[C@H](CS)NC(=O)[C@H](CO)NC(=O)[C@H](Cc1ccccc1)NC(=O)[C@H](CC(C)C)NC(=O)[C@@H](N)CCCCN)C(=O)N[C@@H](CO)C(=O)O (H-KLFSCLSFLS-OH; N-terminus and C-terminus assumed)

>  <ASSAYED_TARGET>
HLA-A03.01 (Homo sapiens)

>  <VALUE_TYPE>
IC50

>  <UNIT_INFO>
nM

>  <VAL>
104

$$$$
>  <MOLECULE>
CC(C)C[C@H](N)C(=O)N[C@@H](Cc1ccccc1)C(=O)N[C@@H](Cc1ccccc1)C(=O)N[C@@H](Cc1ccccc1)C(=O)N[C@@H](Cc1ccccc1)C(=O)N[C@@H](Cc1ccccc1)C(=O)N[C@@H](CCC(=O)O)C(=O)N[C@H](C(=O)N[C@@H](CCCCN)C(=O)O)[C@@H](C)O (H-LFFFFFETK-OH; N-terminus and C-terminus assumed)

>  <ASSAYED_TARGET>
HLA-A03.01 (Homo sapiens)

>  <VALUE_TYPE>
IC50

>  <UNIT_INFO>
nM

>  <VAL>
413

$$$$

###

Readings of IC50 for the listed compounds
- ASSAYED_TARGET: HLA-A02.01 (Homo sapiens, UniProt P04439, D140Y/D185E/D98H/E176V/E277Q/G131W/G231S/I119V/I121R/I166T/I218V/L300P/L318F/N151K/N90K/P208A/P217A/Q86G/Q94H/R138H/R169H/T345S)
- TEST_PROTOCOL: Class I MHC peptide binding affinity (displacement of radiolabeled reference peptide)
- DETAILS: allele A02.01; read-out: Observed Affinity (IC50; (nM))
- Description: In brief, MHCI complexes were prepared and bound to radiolabeled reference peptides. Peptides were incubated at varying concentrations with these complexes for 2 days, and the amount of remaining radiolabeled peptide bound to […] was measured using size exclusion gel-filtration.
Where a SMILES comes first, the peptide text is derived from it.
VALUE_TYPE: IC50 (nM)

>  <COMPOUND>
CC(C)C[C@H](NC(=O)[C@H](Cc1ccccc1)NC(=O)[C@@H](NC(=O)[C@H](Cc1ccc(O)cc1)NC(=O)[C@@H](NC(=O)CN)C(C)C)[C@@H](C)O)C(=O)N1CCC[C@H]1C(=O)N[C@@H](CO)C(=O)N[C@H](C(=O)O)[C@@H](C)O (H-GVYTFLPST-OH; N-terminus and C-terminus assumed)

>  <UNIT_INFO>
nM

>  <VAL>
779

$$$$
>  <COMPOUND>
CC[C@H](C)[C@H](NC(=O)[C@@H](NC(=O)[C@@H](NC(=O)[C@H](CC(C)C)NC(=O)[C@@H](NC(=O)[C@@H]1CCCN1C(=O)[C@H](CCCNC(=N)N)NC(=O)[C@H](Cc1c[nH]c2ccccc12)NC(=O)[C@H](CC(N)=O)NC(=O)[C@@H](N)CCSC)[C@@H](C)CC)[C@@H](C)O)[C@@H](C)CC)C(=O)O (H-MNWRPILTII-OH; N-terminus and C-terminus assumed)

>  <UNIT_INFO>
nM

>  <VAL>
1030

$$$$
>  <COMPOUND>
CC(C)C[C@H](NC(=O)[C@@H](N)C(C)C)C(=O)N[C@@H](CCC(N)=O)C(=O)N[C@@H](CCCNC(=N)N)C(=O)N[C@@H](Cc1ccccc1)C(=O)N[C@@H](CCCNC(=N)N)C(=O)N[C@@H](Cc1ccccc1)C(=O)N[C@H](C(=O)N[C@@H](Cc1c[nH]cn1)C(=O)N[C@H](C(=O)O)C(C)C)[C@@H](C)O

>  <UNIT_INFO>
nM

>  <VAL>
107

$$$$
